Test: L-cystine crystallization inhibition assay (metastable supersaturated L-cystine solution; L-cystine concentration by fluorescence or cyanide-nitroprusside colorimetric assay)
Settings: test compound in L-cystine supersaturated solution (~3 mM), 25° C. for 72 h; read-out: EC50 (Aqueous Solubility of L-Cystine)
pEC50: −log10 of the molar value.

- molecule: "CN1CCN(C(=O)[C@@H](N)CSSC[C@H](N)C(=O)N2CCN(C)CC2)CC1 [LH708, reference compound]"
  pEC50: 7.37
- molecule: "N[C@@H](CSSC[C@H](N)C(=O)N1CCC(N2CCCC2)CC1)C(=O)N1CCC(N2CCCC2)CC1"
  pEC50: 7.44
- molecule: "N[C@@H](CSSC[C@H](N)C(=O)N1CCC2(CCCN2)CC1)C(=O)N1CCC2(CCCN2)CC1"
  pEC50: 7.60
- molecule: "CC1(C)CNCCN1C(=O)[C@@H](N)CSSC[C@H](N)C(=O)N1CCNCC1(C)C"
  pEC50: 6.97
- molecule: "N[C@@H](CSSC[C@H](N)C(=O)NCCN1CCCC1)C(=O)NCCN1CCCC1"
  pEC50: 6.93
- molecule: "N[C@@H](CSSC[C@H](N)C(=O)N1CCCC12CCNCC2)C(=O)N1CCCC12CCNCC2"
  pEC50: 6.92
- molecule: "N[C@@H](CSSC[C@H](N)C(=O)NCCCN1CCCC1)C(=O)NCCCN1CCCC1"
  pEC50: 6.79
- molecule: "CN(C)CCCNC(=O)[C@@H](N)CSSC[C@H](N)C(=O)NCCCN(C)C"
  pEC50: 6.94
- molecule: "N[C@@H](CSSC[C@H](N)C(=O)NCCN1CCCCC1)C(=O)NCCN1CCCCC1"
  pEC50: 6.85
- molecule: "N[C@@H](CSSC[C@H](N)C(=O)N1CCN(C2CCCC2)CC1)C(=O)N1CCN(C2CCCC2)CC1"
  pEC50: 7.40
- molecule: "N[C@@H](CSSC[C@H](N)C(=O)N1CCN(C2CC2)CC1)C(=O)N1CCN(C2CC2)CC1"
  pEC50: 7.16
- molecule: "N[C@@H](CSSC[C@H](N)C(=O)NCCCN1CCOCC1)C(=O)NCCCN1CCOCC1"
  pEC50: 6.80
- molecule: "CC(C)(C)N1CCN(C(=O)[C@@H](N)CSSC[C@H](N)C(=O)N2CCN(C(C)(C)C)CC2)CC1"
  pEC50: 7.49
- molecule: "N[C@@H](CSSC[C@H](N)C(=O)NCCN1CCOCC1)C(=O)NCCN1CCOCC1"
  pEC50: 7.10
- molecule: "N[C@@H](CSSC[C@H](N)C(=O)N1CCNCC1)C(=O)N1CCNCC1"
  pEC50: 7.28
- molecule: "CN(C)CCNC(=O)[C@@H](N)CSSC[C@H](N)C(=O)NCCN(C)C"
  pEC50: 6.79
- molecule: "N[C@@H](CSSC[C@H](N)C(=O)N1CCN(c2ccccc2)CC1)C(=O)N1CCN(c2ccccc2)CC1"
  pEC50: 6.30
